These data points were gathered from patent US20100119520A1.

Target: lysozyme (Gallus gallus (Chicken), UniProt P00698 19-147)
Sequence (P00698 19-147 limits assumed): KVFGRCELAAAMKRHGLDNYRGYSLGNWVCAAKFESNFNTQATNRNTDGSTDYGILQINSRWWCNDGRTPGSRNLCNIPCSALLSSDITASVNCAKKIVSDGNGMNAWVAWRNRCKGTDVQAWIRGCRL
Assay: ELISA, protein coated at 10 ug/ml

binder: anti-LF clone LF9D (antibody, V domains shown) VH: EVQLLESGGGLVKPGGSLRLSCAASGFTFSSYAMHWVRQTPEKGLEWVSTISSIGGSTWYSDSVKGRFTISRDNSKNTLFLHMKSLRAEDTAVYYCARDFFSQVGWSTPNNWFDPWGQGTLVTVS VL: AAELTQSPSTLSASVGDRVTITCRASQGIATYLNWYQQIPGKAPKLLIYAASTLESGVPSRFSGSGSGAEFTLTISSLQPGDFATYYCQQFYSMPLTFGGGTKVEIKR
binding result: no binding

binder: anti-EF clone EF14H (antibody, V domains shown) VH: VQLLEESGGGLVKPGGSLRLSCAASGFTFSNYSMNWVRQAPGKGLEWVGFIRTKAKGGTTEYAASVKGRFTISRDDSKSIAYLQMNSLKTEDTAVYYCTPAGIIIRLVTPIYYYYMDVWGKGTTVTVS VL: AAELTQSPSSLSASVGDRVTITCRASQGIRNYLAWYQQKPGKVPKLLIYAASTLQSGVPSRFSGSGSGTDFTLTISSLQPEDVATYYCQKYSSAPFTFGPGTKVGIKR
binding result: no binding

binder: anti-anthrax EF13D monoclonal antibody (IgG) (antibody, V domains shown) VH: EVQLLESGAEVKKPGSSVKVSCKVSGGTFSSFGISWVRQAPGQGLEWMGLIIPILGTANYAQKFQGRLTITADESTSTVYMELSSLRSEDTAVYYCATDPYHNWGEWDLDYWGQGTLVTVS VL: AAELTQSPSSLSASVGDRVSITCRASQSISNYLSWYQQKPGKAPQLLIYDASTLQSGVPSRFSGSGSGTDFTLTISSLQPEDFATYYCQCGYGTYPTFGGGTQVEIKR
binding result: no binding
